Biological target: human full length HSD11β1 (Homo sapiens, UniProt P28845)
Construct: transient expression of human full length HSD11β1 expression vector
Sequence (P28845 whole entry): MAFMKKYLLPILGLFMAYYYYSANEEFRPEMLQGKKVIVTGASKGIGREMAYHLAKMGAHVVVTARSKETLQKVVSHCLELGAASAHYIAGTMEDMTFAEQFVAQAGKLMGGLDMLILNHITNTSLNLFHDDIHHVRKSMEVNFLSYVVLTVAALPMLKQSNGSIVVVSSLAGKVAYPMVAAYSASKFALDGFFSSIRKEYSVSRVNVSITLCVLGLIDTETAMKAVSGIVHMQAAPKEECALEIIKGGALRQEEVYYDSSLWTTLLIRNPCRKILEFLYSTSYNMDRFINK
Experiment: In Vitro HSD11β1 Inhibition Assay
Details: CHO cells transiently expressing human HSD11β1; 200 nM cortisone+500 uM NADPH overnight; cortisone to cortisol by LC/MS-MS; read-out: 11βHSD1 (IC50)
Method: In Vitro HSD11β1 Inhibition Assay: CHO cells were maintained in Dulbecco's modified Eagle's medium/nutrient mixture F-12 containing 5% fetal bovine serum (v/v) and 2 mM glutamine. Cells were cultured at 37° C. with 5% CO2. […] The enzymatic activity or inhibition of enzyme activity was measured by estimating the conversion of cortisone to cortisol by LC/MS-MS method. The IC50 in nM was calculated from a 8 point log scale of concentration versus inhibition.
pIC50: −log10 of the molar value.
Consider the following compounds; for each one, report its pIC50.

Challenge: Please provide the recorded pIC50 for Cc1ccc2[nH]cc(C(C)CC(=O)N3C4CC5CC3CC(O)(C5)C4)c2c1C (stereo not shown) [Compound 164] , tested on human full length HSD11β1 (Homo sapiens, UniProt P28845).
Response given: 6.82 to 7.00

Challenge: Next compound: CC(CC(=O)N1C2CC3CC1CC(C(=O)O)(C3)C2)c1c[nH]c2ccccc12 (stereo not shown)
Response given: < 6.60

Challenge: Next compound: CC(CC(=O)N1C2CC3CC1CC(O)(C3)C2)c1nc2ccc(Cl)cc2[nH]1 (stereo not shown)
Response given: < 6.60

Challenge: Next compound: Cc1ccc2[nH]cc(C(C)CC(=O)N3C4CC5CC3CC(O)(C5)C4)c2c1Cl (single isomer, unassigned) [Compound 174]
Response given: < 6.60

Challenge: Next compound: CC(CC(=O)N1C2CC3CC(C2)C(O)C1C3)c1c[nH]c2ccccc12 (stereo not shown)
Response given: 6.82 to 7.00

Challenge: Next compound: COC12CC3CC(C1)N(C(=O)CC(C)c1c[nH]c4ccccc14)C(C3)C2 (stereo not shown)
Response given: < 6.60

Challenge: Next compound: CC(CC(=O)N1C2CC3CC1CC(CC(=O)O)(C3)C2)c1c[nH]c2ccc(Cl)c(Br)c12 (stereo not shown)
Response given: 6.70 to 6.82

Challenge: Next compound: CC(CC(=O)N1C2CC3CC1CC(OC(F)F)(C3)C2)c1c[nH]c2cccc(Cl)c12 (stereo not shown)
Response given: 6.82 to 7.00

Challenge: Next compound: O=C(CCc1c[nH]c2ncccc12)N1C2CC3CC1CC(O)(C3)C2
Response given: < 6.60

Challenge: Next compound: CC(CC(=O)N1C2CC3CC1CC(CO)(C3)C2)c1c[nH]c2cccc(Cl)c12 (stereo not shown)
Response given: > 7.00

Challenge: Next compound: COc1ccc2[nH]cc(C(C)CC(=O)N3C4CC5CC3CC(C#N)(C5)C4)c2c1 (stereo not shown)
Response given: < 6.60

Challenge: Next compound: CC(CC(=O)N1C2CC3CC1CC(O)(C3)C2)c1c[nH]c2ncc(Cl)c(C3CC3)c12 (single isomer, unassigned) [Compound 200]
Response given: < 6.60

Challenge: Next compound: CC(CC(=O)N1C2CC3(O)CC1CC(F)(C2)C3)c1c[nH]c2cccc(C3CC3)c12 (stereo not shown)
Response given: 6.82 to 7.00

Challenge: Next compound: CC(CC(=O)N1C2CC3CC1CC(C(C)C(=O)O)(C3)C2)c1c[nH]c2cccc(Cl)c12 (stereo not shown)
Response given: < 6.60

Challenge: Next compound: CC(CC(=O)N1C2CC3CC1CC(CC(=O)O)(C3)C2)c1c[nH]c2cccc(C3CC3)c12 (single isomer, unassigned) [Compound 155]
Response given: 6.82 to 7.00

Challenge: Next compound: CC(CC(=O)N1C2CC3CC1CC(O)(C3)C2)c1c[nH]c2cccc(C3CC3)c12 (single isomer, unassigned) [Compound 102]
Response given: > 7.00
